Every entry's value here was drawn from patent US20250084155A1.

Measured % Diss by item
- system-name: T1, HSP70 (human HSP70; the antigen of the binning, humanization and variant binding assays) (human, UniProt P0DMV8 1-641, limits assumed)
- T1 construct: also called hu HSP70
- T1 sequence (P0DMV8 whole entry, change not shown): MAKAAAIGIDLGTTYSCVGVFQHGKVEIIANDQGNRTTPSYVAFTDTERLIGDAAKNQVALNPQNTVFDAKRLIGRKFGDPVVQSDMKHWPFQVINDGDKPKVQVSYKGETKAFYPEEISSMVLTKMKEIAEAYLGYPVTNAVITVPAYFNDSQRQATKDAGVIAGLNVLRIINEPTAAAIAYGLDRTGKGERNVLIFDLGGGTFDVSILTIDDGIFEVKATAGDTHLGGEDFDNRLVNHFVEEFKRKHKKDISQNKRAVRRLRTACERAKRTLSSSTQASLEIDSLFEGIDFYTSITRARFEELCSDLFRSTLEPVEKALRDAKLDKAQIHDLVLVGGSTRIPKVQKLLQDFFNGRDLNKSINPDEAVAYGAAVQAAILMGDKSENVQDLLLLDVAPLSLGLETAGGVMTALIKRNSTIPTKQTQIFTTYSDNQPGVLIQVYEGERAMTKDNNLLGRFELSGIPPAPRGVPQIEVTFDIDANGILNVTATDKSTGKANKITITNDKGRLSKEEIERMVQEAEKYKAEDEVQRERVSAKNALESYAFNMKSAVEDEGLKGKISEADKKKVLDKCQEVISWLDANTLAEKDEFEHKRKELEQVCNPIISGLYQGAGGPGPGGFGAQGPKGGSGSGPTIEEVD
- test-details: BLI, anti-human Fc capture, antigen 100 nM

>  <binder>
h77A-1.86 (antibody, V domains shown, captured by anti-human Fc) VH: QIQLVQSGVEVKKPGASVKVSCKASGYTFTNYGMNWVRQAPGQGLEWMGWINTYTGETTYADDFKGRFTFTTDTSTSTAYMELRSLRSDDTAVYFCARYDHAMDYWGQGTLVTVSS VL: EIVLTQSPDSLAVSLGERATINCKSSQSLFNSGTRKNYLAWYQKKAGQSPKLLIYWTSTRESGVPDRFSGSGSGTDFTLSIDRLQAEDVAVYYCKQSYTLYTFGGGTKVEIK

>  <measurement-unit>
%

>  <% Diss>
14.1

$$$$
>  <binder>
h77A-1.7 (antibody, V domains shown, captured by anti-human Fc) VH: QIQLVQSGAEVKKPGASVKVSCKASGYTFTNYGMNWVRQAPGQGLEWMGWINTYTGEPTYADDFKGRFTFTTDTSTSTAYMELRSLRSDDTAVYFCARYDHFMDYWGQGTLVTVSS VL: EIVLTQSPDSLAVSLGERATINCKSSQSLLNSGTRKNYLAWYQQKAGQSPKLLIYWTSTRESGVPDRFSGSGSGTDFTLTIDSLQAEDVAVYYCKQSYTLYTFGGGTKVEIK

>  <measurement-unit>
%

>  <% Diss>
30.2

$$$$
>  <binder>
h77A-1.63 (antibody, V domains shown, captured by anti-human Fc) VH: QIQLVQSGAEVKKPGASVKVSCKASGYTFTNYGMNWVRQAPGQGLEWMGWINTYTGEPTYADDFKGRFTFTTDTSTSTAYMELRSLRSDDTAVYFCARYDHAMDYWGQGSLVTVSS VL: EIVLTQSPDSLAVSLGERATINCKSSQSLLNSGTRKNYLTWYQQKSGQSPKLLIYWTSTRESGVPDRFSGSGSGTDFTLTIDSLQAEDVAIYYCKQSYTLYTFGGGTKVEIK

>  <measurement-unit>
%

>  <% Diss>
14.2

$$$$
